assay: in vitro; assay type: cell-based; conditions: human
Property label: CC50 at 7 days

// query # query: CC50 at 7 days of entry "O=C(O)c1ccc(-c2nc(-c3ccccc3)c(-c3ccccc3)[nH]2)cc1"
// result > 100 µM

---

test: in vitro; details: African green monkey
Property label: CC50

// query # query: CC50 of entry "O=C(O)c1ccc(-c2nc(-c3ccccc3)c(-c3ccccc3)[nH]2)cc1"
// result > 100 µM

---

test system: HIV-1 92BR025 (subtype C clinical isolate); assay: Anti-HIV efficacy in human PBMCs, isolate 92BR025; format: cell-based; conditions: Human immunodeficiency virus 1, PBMC
Property label: pIC50
Please express pIC50 as -log10 of the molar concentration.

// query # query: pIC50 of entry "O=C(O)c1ccc(-c2nc(-c3ccccc3)c(-c3ccccc3)[nH]2)cc1"
// result 4.29

---

system: DENV (serotypes 1-4); assay: CPE assay, Dengue serotypes 1-4; assay type: cell-based, Dengue virus; conditions: Dengue virus
Property label: IC50

// query # query: IC50 of entry O=C(O)c1ccc(-c2nc(-c3ccccc3)c(-c3ccccc3)[nH]2)cc1 [CMPD-E]
// result > 100 µM

---

test: in vitro; type: cell-based; details: hamster
Property label: CC50
Value and unit, in that order.

// query # query: CC50 of entry "O=C(O)c1ccc(-c2nc(-c3ccc4oc5ccc(-c6nc(-c7ccc(C(=O)O)cc7)[nH]c6-c6ccccc6)cc5c4c3)c(-c3ccccc3)[nH]2)cc1"
// result 35 µM

---

test system: HIV-1 93BR020 (subtype F clinical isolate); assay: Anti-HIV efficacy in human PBMCs, isolate 93BR020; type: cell-based; conditions: Human immunodeficiency virus 1, PBMC
Property label: IC50 (µM)
Write the value in µM as a bare number.

// query # query: IC50 of entry O=C(O)c1ccc(-c2nc(-c3ccccc3)c(-c3ccccc3)[nH]2)cc1 [CMPD-E]
// result 65.6
